Value source: paper PMC10611828

experiment: Stability in mouse serum at 37 °C (radio-HPLC); type: in vitro ADME; details: 4 h, read-out: intact radiolabeled ligand (RCP)
quantity-kind: remaining at 4 h
Please give the number followed by its unit.

What value of measured remaining at 4 h is listed for CC(C)CC(CC(C)C)NC(=O)[C@H](Cc1cnc[nH]1)NC(=O)CNC(=O)[C@@H](NC(=O)[C@H](C)NC(=O)[C@H](Cc1c[nH]c2ccccc12)NC(=O)[C@H](CCC(N)=O)NC(=O)[C@@H](Cc1ccccc1)NC(=O)COCC(=O)Nc1ccc(CNC(=O)CN2CCN(CC(=O)O)CCN(CC(=O)O)CCN(CC(=O)O)CC2)cc1)C(C)C [[^177Lu]Lu-NeoB, metal not drawn] ?
84.1%
